pIC50: −log10 of the molar value.
Bcl-2 (Homo sapiens, UniProt P10415): recorded pIC50 for assorted compounds
Sequence (P10415 92-205 limits assumed): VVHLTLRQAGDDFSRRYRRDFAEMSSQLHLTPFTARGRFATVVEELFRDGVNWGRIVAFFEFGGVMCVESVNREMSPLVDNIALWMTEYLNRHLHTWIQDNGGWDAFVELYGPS

Record O=C(c1ccc2ccccc2c1)c1cc(C(=O)c2ccc3ccccc3c2)c(O)c(O)c1O ; system Bcl-2 (Homo sapiens, UniProt P10415); pIC50 = < 6.00

Others:
Value sought: pIC50, system Bcl-2 (Homo sapiens, UniProt P10415), item CC(C)CCCc1cc(C(=O)Nc2cc(S(=O)(=O)c3ccc(Cl)cc3)ccc2Cl)c(O)c(O)c1O . Result: ≥ 6.00

# lookup: O=C(c1cc(C(=O)c2cccc3ccccc23)c(O)c(O)c1O)c1cccc2ccccc12 on Bcl-2 (Homo sapiens, UniProt P10415), pIC50 = < 6.00

Simply: CC(C)(C)c1ccc(Cc2cc(C(=O)Nc3cc(S(=O)(=O)c4ccc(Cl)cc4)ccc3Cl)c(O)c(O)c2O)cc1 , Bcl-2 (Homo sapiens, UniProt P10415), pIC50 = < 6.00

Here CCCCCCCCCCCc1cc(C(C)C)c(O)c(O)c1O was tested on Bcl-2 (Homo sapiens, UniProt P10415), and its pIC50 came to < 6.00

The recorded pIC50 with Bcl-2 (Homo sapiens, UniProt P10415) for CC(C)(C)c1ccc(CNC(=O)c2cc(CCc3ccccc3)c(O)c(O)c2O)cc1 was < 6.00

Entry CC(C)c1ccccc1Cc1cc(C(=O)Nc2cc(S(=O)(=O)c3ccc(Cl)cc3)ccc2Cl)c(O)c(O)c1O : pIC50 on Bcl-2 (Homo sapiens, UniProt P10415) = < 6.00
